B1: Caulobacter ParB omega fusion; a variant is named by its letters at X, in order, B8GW30 (parent)
chain: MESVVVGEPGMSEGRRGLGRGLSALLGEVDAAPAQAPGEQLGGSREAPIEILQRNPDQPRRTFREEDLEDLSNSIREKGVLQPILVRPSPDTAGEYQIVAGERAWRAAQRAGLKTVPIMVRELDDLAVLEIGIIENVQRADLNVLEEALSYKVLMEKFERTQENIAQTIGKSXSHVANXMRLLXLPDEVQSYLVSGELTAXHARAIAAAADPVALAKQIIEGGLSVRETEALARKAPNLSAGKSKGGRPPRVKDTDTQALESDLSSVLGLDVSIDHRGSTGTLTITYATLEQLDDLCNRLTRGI

Variants of: B1
METHOD DESCRIPTION: one-hybrid fitness for binding NBS DNA (the Noc-binding site; scaled: cognate 1, non-cognate 0); higher = stronger binding
CONDITION PARAMETERS: with NBS DNA site
The full ranking holds about 81,000 sequences; the median of “one-hybrid fitness for binding NBS DNA” is about -0.1, and the highest 2% start at about 0.36. This is one part of a sample in which the highest values are shown more often than they occur.
Collected one-hybrid fitness for binding NBS DNA values appear next to each entry.

In [3]: df
Out[3]:
   mutations  test_value
0       TALL       ≤ 0.2
1       RQSR       0.474

Prompt: What value of measured one-hybrid fitness for binding NBS DNA is listed for QMVV ?
Response: ≤ 0.2

Prompt: Quick one: one-hybrid fitness for binding NBS DNA of QTIV ?
Response: ≤ 0.2

Prompt: May I ask what one-hybrid fitness for binding NBS DNA has been recorded for WLLP ?
Response: ≤ 0.2

Prompt: Quick check: one-hybrid fitness for binding NBS DNA of EVLS ?
Response: ≤ 0.2

Prompt: For the variant QSKV , what one-hybrid fitness for binding NBS DNA is on record?
Response: 0.398
